# Tested on: Staphylococcus aureus (MSSA)
# experimental context: 24 h
Starred links: 1 amine or outer side, 2 acyl side, 3 side chain; linkers in the order of their positions; H or OH if unused. Positions of bridges follow the written chain, without caps; N, C: chain ends. Non-standard residues stand in square brackets, D forms with d. Residues, ends and D or L forms follow the SMILES beside them. ξ: configuration not given here. *: point of attachment. X35 = CC(C(N[*:1])C(=O)[*:2])N(Cc1ccc(O)cc1)Cc1ccc(O)cc1; ξAbu(βξ-NH2) = CC(N[*:3])C(N[*:1])C(=O)[*:2]; Pentadecanoyl = CCCCCCCCCCCCCCC(=O)*; ξAsp(βξ-Me) = CC(C(=O)O)C(N)C(=O)O; Pip = O=C(O)[CH]1CCCCN1
readout type: MIC (µg/mL)
Field format: number, assumed µg/mL, no unit text.

In the examples that follow, each entry is paired with its recorded MIC.
compound	result units	result number
CCCCCCCCCCCCCCC(=O)NC(CC(=O)O)C(=O)NC1C(=O)N2CCCCC2C(=O)NC(C(C)C(=O)O)C(=O)NC(CC(=O)O)C(=O)NCC(=O)NC(CC(=O)O)C(=O)NCC(=O)NC(C(C)NC(=O)[C@@H](N)CCC)C(=O)NC(C(C)C)C(=O)N2CCCC2C(=O)NC1C (stereo partly drawn) [Compound 163, C15-Amphomycin-9-Nvl]	µg/mL	8
CCCCCCCCCCCCCCC(=O)NC(CC(=O)O)C(=O)NC1C(=O)N2CCCCC2C(=O)NC(C(C)C(=O)O)C(=O)NC(CC(=O)O)C(=O)NCC(=O)NC(CC(=O)O)C(=O)NCC(=O)NC(C(C)NC(=O)CNC(=O)CCCN)C(=O)NC(C(C)C)C(=O)N2CCCC2C(=O)NC1C (stereo not drawn) [Compound 68, C15-Amphomycin-9-Gly-GABA]	µg/mL	2
CCCCCCCCCCCCCCC(=O)NC(CC(=O)O)C(=O)NC1C(=O)N2CCCCC2C(=O)NC(C(C)C(=O)O)C(=O)NC(CC(=O)O)C(=O)NCC(=O)NC(CC(=O)O)C(=O)NCC(=O)NC(C(C)N(Cc2ccc(O)cc2)Cc2ccc(O)cc2)C(=O)NC(C(C)C)C(=O)N2CCCC2C(=O)NC1C (stereo not drawn) [Compound 267] (Pentadecanoyl-D[ξAbu(βξ-NH2)][Pip][ξAsp(βξ-Me)]DGDG[X35]VP; lactam 2-C; configuration not given here)	µg/mL	8

So what's the measured MIC for this one? CCCCCCCCCCCCCCC(=O)NC(CC(=O)O)C(=O)NC1C(=O)N2CCCCC2C(=O)NC(C(C)C(=O)O)C(=O)NC(CC(=O)O)C(=O)NCC(=O)NC(CC(=O)O)C(=O)NCC(=O)NC(C(C)NC(=O)[C@@H](N)c2ccccc2)C(=O)NC(C(C)C)C(=O)N2CCCC2C(=O)NC1C (stereo partly drawn) [Compound 41, C15-Amphomycin-9-Phg]
4

---

# protocol description: In vivo half-life after single i.v. administration, mice
# experimental context: female, Swiss CD1, mouse, plasma, iv, 10 mg/kg
Starred links: 1 amine or outer side, 2 acyl side, 3 side chain; linkers in the order of their positions; H or OH if unused. Positions of bridges follow the written chain, without caps; N, C: chain ends. Non-standard residues stand in square brackets, D forms with d. Residues, ends and D or L forms follow the SMILES beside them. ξ: configuration not given here. *: point of attachment. ξAbu(βξ-NH2) = CC(N[*:3])C(N[*:1])C(=O)[*:2]; ξAsp(βξ-Me) = CC(C(=O)O)C(N)C(=O)O; X2 = O=C(CCc1ccc(N[*:1])cc1)[*:2]; ξAbu(3ξ-NH2) = CC(N)C(N)C(=O)O; Lauroyl = CCCCCCCCCCCC(=O)*; Pip = O=C(O)[CH]1CCCCN1
readout type: half-life (h)
Give the number; h is assumed, so skip it.

Need half-life of CCCCCCCCCCCC(=O)Nc1ccc(CCC(=O)NC(CC(=O)O)C(=O)NC2C(=O)N3CCCCC3C(=O)NC(C(C)C(=O)O)C(=O)NC(CC(=O)O)C(=O)NCC(=O)NC(CC(=O)O)C(=O)NCC(=O)NC(C(C)N)C(=O)NC(C(C)C)C(=O)N3CCCC3C(=O)NC2C)cc1 (stereo not drawn) [Compound 108, C12-(p-Aminophenylpropanoyl)-Amphomycin] (Lauroyl-[X2]D[ξAbu(βξ-NH2)][Pip][ξAsp(βξ-Me)]DGDG[ξAbu(3ξ-NH2)]VP; lactam 3-C; configuration not given here) , thanks.
4.55

Reference source: patent US7868135B2
